Target: human monocyte chemo-attractant protein-1 (MCP-1) (human, UniProt P13500 24-99)
Sequence (P13500 24-99): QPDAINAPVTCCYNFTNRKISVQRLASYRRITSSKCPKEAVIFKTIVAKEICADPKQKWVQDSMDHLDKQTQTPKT
Assay: cell-based or functional assay
endpoint name: IC50 Ca++ Flux (µg/mL)
Could you give me the number in µg/mL? Just the number is fine.

Worked cases, answers included:
binder: anti-MCP-1 mAb 5.3.1 (antibody, V domains shown) VH: QVQLVQSGAEVKKPGASVKVSCKVSGYTLSELSMHWVRQAPGKGLEWMGGFDPEDGETIYAQKFQGRVTMTEDTSTDTAYMELSSLRSEDTAVFYCATKREYSGYFDYWGQGTLVTVSS VL: DIVMTQSPDSLAVSLGERATINCKSSQSVLYSSNSKNYLAWFQQKPGQPPKLLIYWASTRESGVPDRFSGSGSGTDFTLTISRLQAEDVAVYSCQQYFITPWTFGQGTKVELKR
IC50 Ca++ Flux / µg/mL: 1.8
--
binder: anti-MCP-1 mAb 1.11.1 (antibody, V domains shown) VH: QVQVVQSGAEVKNPGASVKVSCKVSGSTLTELSMHWVRQAPGKGLEWMGGFDPEDGETIYAQKFQGRVTMTEDTSTDTVYMELSSLRSEDTAVYYCATNDFWSGYFDYWGQGTLVTVSS VL: DIVMTQSPDSLAVSLGERATITCKSSQTVLYSSNNKNYLVWYQQKSGQPPKLLIHWASIRESGVPDRFSGSGSGTDFTLTISSLQAEDVAVYYCQQYYSSPWTFGQGTKVEIKR
IC50 Ca++ Flux / µg/mL: 0.098

// query IC50 Ca++ Flux value for entry anti-MCP-1 mAb 1.1.1 (antibody, human IgG2, kappa, V domains shown) VH: QVQLVQSGAEVKKPGASVKVSCKVSGYTLTELSMHWVRQAPGNGLEWMGGFDPEDGETIYAQRFQGRVVMTEDPSTDTAYMELSSLRSEDTAVYYCATNEFWSGYFDYWGQGTLVTVSS VL: DIVMTQSPDSLAMSLGERATINCKSSQSVLYSSNNKNYLVWYQQKPGQPPKLLIYWASIRESGVPDRFSSSGSETDFTLTISSLQAEDVAVYYCQQYFSSPWTFGQGTKVEIKR
0.24
